Experiment: Acute toxicity in KM mouse assessed as survival at 300 mg/kg, po up to 14 days (reference value: 100%)
Type: organism-based
Design: dose 300 mg/kg, route oral
Settings: in vivo
experimental-readout: survival at 336 h (%)
Numbers only, in %.

-- ask Query: survival at 336 h; subject: CN(C)CCC(c1ccc(Cl)c(Cl)c1)N1CCOCC1 (stereo unspecified)
-- reply 100

* * *

Assay: AUC (0 to infinity) in Sprague-Dawley rat at 2 mg/kg, po
Format: ADME, organism-based
Parameters: dose 2 mg/kg, route oral, time infinity
Conditions: plasma
experimental-readout: AUC(0-inf) (ng·h/mL)
One number for each entry, in ng·h/mL.

-- ask Request the reported AUC(0-inf) associated with CN(C)CCC(c1ccc(Cl)c(Cl)c1)N1CCOCC1 (stereo unspecified)
-- reply 80

* * *

Assay: Drug uptake in Sprague-Dawley rat plasma at 0.5 mg/kg iv after 0.50 hrs
Assay type: ADME, organism-based
Parameters: dose 0.5 mg/kg, route intravenous
experimental-readout: concentration at 0.5 h (ng/mL)
Answers are plain numbers, in ng/mL.

-- ask Record request: concentration at 0.5 h value, item CN(C)CCC(c1ccc(Cl)c(Cl)c1)N1CCOCC1 (stereo unspecified)
-- reply 44.5

* * *

Molecular target: Sodium-dependent dopamine transporter (Homo sapiens)
Experiment: Inhibition of [3H]-DA uptake in human dopamine transporter expressed in HEK293 cells by scintillation counting
Format: cell-based
For each record, write down the corresponding log10(IC50).
Recorded IC50 (log10, nM)

Would you please look over these solved cases?
-- ask Value wanted: log10(IC50) (Sodium-dependent dopamine transporter (Homo sapiens)) of entry Clc1ccc(C(CCN2CCOCC2)N2CCCC2)cc1Cl (stereo unspecified)
-- reply 2.38

-- ask Quick check: log10(IC50) on Sodium-dependent dopamine transporter (Homo sapiens), item CN(C)CCC(c1cc2ccccc2s1)N1CCCC1 (stereo unspecified) ?
-- reply 2.94

Hi team, please reply with log10(IC50) for each item in this list.
1. CN(C)CCC(c1ccc(Cl)c(Cl)c1)N1CCCC1 (stereo unspecified)
2. CN(C)CCC(c1ccc(Cl)c(Cl)c1)N1CCOCC1 (stereo unspecified)
3. CN(C)CCC(c1csc2ccccc12)N1CCCC1 (stereo unspecified)
4. C1=C(Cc2ccccc2)CCN(CCC(c2csc3ccccc23)N2CCCC2)C1 (stereo unspecified)
5. C1=C(Cc2ccccc2)CCN(CCC(c2csc3ccccc23)N2CCOCC2)C1 (stereo unspecified)
6. Clc1ccc(C(CCN2CC=C(Cc3ccccc3)CC2)N2CCCC2)cc1Cl (stereo unspecified)
7. COc1ccc2cc(C(CCN(C)C)N3CCCC3)ccc2c1Cl (stereo unspecified)

-- reply
[2.55, 2.39, 2.99, 2.51, 2.93, 2.46, 3.91]

I'm hoping you can list log10(IC50) for every molecule here, please.
1. CCN(CC)CCC(c1ccc(Cl)c(Cl)c1)N1CCCC1 (stereo unspecified)
2. CN(C)CCC(c1ccc(Cl)c(Cl)c1)N1CCCCC1 (stereo unspecified)

-- reply
2.56
2.78

* * *

Assay: Cmax in Sprague-Dawley rat at 2 mg/kg, po
Format: ADME, organism-based
Design: dose 2 mg/kg, route oral
Conditions: in vivo
experimental-readout: Cmax (ng/mL)
Answers are plain numbers, in ng/mL.

-- ask Name the reported Cmax value associated with the molecule CN(C)CCC(c1ccc(Cl)c(Cl)c1)N1CCOCC1 (stereo unspecified)
-- reply 26.8

* * *

Test: Drug uptake in Sprague-Dawley rat brain at 0.5 mg/kg ip after 1 hrs
experimental-readout: concentration at 1 h (ng/mL)
One number for each entry, in ng/mL.

-- ask Which concentration at 1 h reading was recorded for the molecule CN(C)CCC(c1ccc(Cl)c(Cl)c1)N1CCOCC1 (stereo unspecified) ?
-- reply 425

* * *

Target: Sodium-dependent dopamine transporter (Homo sapiens, UniProt Q01959)
Sequence (Q01959 whole entry): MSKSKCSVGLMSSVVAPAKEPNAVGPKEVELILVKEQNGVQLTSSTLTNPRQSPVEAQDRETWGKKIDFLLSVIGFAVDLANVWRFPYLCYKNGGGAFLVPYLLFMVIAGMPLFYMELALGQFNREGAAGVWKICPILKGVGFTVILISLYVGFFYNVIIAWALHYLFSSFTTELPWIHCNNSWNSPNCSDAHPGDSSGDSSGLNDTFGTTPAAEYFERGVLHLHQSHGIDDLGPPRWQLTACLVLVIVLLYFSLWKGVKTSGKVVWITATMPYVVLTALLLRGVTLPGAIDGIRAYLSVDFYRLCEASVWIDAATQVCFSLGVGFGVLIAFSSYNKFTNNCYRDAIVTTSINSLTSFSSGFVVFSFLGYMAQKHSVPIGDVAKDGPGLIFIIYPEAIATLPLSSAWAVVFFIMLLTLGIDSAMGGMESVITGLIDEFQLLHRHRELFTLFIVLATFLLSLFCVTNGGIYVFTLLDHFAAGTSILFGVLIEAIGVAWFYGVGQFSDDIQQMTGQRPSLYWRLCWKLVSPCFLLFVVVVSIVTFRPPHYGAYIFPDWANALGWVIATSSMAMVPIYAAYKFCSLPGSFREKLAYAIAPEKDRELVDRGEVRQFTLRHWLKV
Assay: Inhibition of [3H]-DA uptake in human dopamine transporter expressed in CHO cells at 10 uM by scintillation counting
I would appreciate it if you labelled entries Condition met when inhibition is 40% or higher, otherwise Condition not met.

-- ask Quick check, inhibition >= 40%? CN(C)CCC(c1ccc(C(F)(F)F)cc1)N1CCOCC1 (configuration not stated)
-- reply Condition not met

-- ask Is it the case that CN(C)CCC(c1ccc(F)cc1F)N1CCOCC1 (configuration not stated) has inhibition reaching or exceeding 40%?
-- reply Condition met

-- ask Is reported inhibition greater than or equal to 40% here: CCOC(=O)C1CCCN(C(CCN2CCOCC2)c2ccc(Cl)c(Cl)c2)C1 (configuration not stated)
-- reply Condition not met

-- ask Hello, I need to know if CC1CCCN(C(CCN2CCOCC2)c2ccc(Cl)c(Cl)c2)C1 (configuration not stated) has measured inhibition not below 40%. Thanks!
-- reply Condition met

-- ask Does the molecule Clc1ccc(C(CCN2CCOCC2)N2CCOCC2)cc1Cl (configuration not stated) have recorded inhibition that is 40% or more?
-- reply Condition met

-- ask Check the entry CN(C)CCC(c1ccc(Cl)cc1)N1CCOCC1 (configuration not stated) : does inhibition equal or exceed 40%?
-- reply Condition not met

-- ask Is inhibition for CNCCC(c1ccc(F)cc1F)N1CCOCC1 (configuration not stated) at or above 40%?
-- reply Condition met

-- ask Does CN(C)CCC(c1ccc(F)cc1)N1CCOCC1 (configuration not stated) have a reported inhibition of at least 40%?
-- reply Condition not met

Attention now shifts to the item below.
-- ask Does the reported inhibition for CN(C)CCC(c1csc2ccccc12)N1CCOCC1 (configuration not stated) fall at or above the 40% mark?
-- reply Condition met

* * *

Assay: AUC (0 to infinity) in Sprague-Dawley rat at 0.5 mg/kg, iv
Format: ADME, organism-based
Design: time infinity, dose 0.5 mg/kg, route intravenous
Details: plasma
experimental-readout: AUC(0-inf) (ng·h/mL)
Give bare numbers, in ng·h/mL.

-- ask I have this compound here, CN(C)CCC(c1ccc(Cl)c(Cl)c1)N1CCOCC1 (stereo unspecified) , and I need its recorded AUC(0-inf).
-- reply 83.7

* * *

Task for the reader: assign each of the following molecules its reported inhibition.
Target: Sodium-dependent noradrenaline transporter (Homo sapiens)
Sequence (P23975 whole entry): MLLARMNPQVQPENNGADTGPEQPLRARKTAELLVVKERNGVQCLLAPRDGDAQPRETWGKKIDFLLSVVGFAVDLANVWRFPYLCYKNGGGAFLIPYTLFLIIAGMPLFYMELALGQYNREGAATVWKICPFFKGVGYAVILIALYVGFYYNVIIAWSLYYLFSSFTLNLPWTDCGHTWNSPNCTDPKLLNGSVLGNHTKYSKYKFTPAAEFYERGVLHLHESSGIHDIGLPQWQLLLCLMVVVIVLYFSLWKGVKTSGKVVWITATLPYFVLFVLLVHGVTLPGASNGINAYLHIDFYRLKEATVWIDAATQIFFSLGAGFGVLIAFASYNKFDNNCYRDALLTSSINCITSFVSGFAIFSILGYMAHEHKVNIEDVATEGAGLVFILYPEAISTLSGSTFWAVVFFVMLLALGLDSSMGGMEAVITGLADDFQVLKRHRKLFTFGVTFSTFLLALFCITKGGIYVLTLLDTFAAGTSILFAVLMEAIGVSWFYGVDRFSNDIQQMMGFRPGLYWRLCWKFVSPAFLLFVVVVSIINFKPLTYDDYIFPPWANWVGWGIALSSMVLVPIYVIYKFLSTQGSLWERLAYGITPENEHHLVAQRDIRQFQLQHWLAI
Assay: Inhibition of [3H]-NE uptake in human norepinephrine transporter expressed in HEK293 cells at 10 uM by scintillation counting
Format: cell-based
Give bare numbers, in %.

Study these solved cases before continuing.
-- ask For CN(C)CCC(c1ccc(C(F)(F)F)cc1)N1CCOCC1 (stereo not drawn) , what is its reported inhibition?
-- reply 83.2

-- ask Fill in the blank: the reported inhibition of Cc1ccc(C(CCN(C)C)N2CCOCC2)cc1 (stereo not drawn) is ____.
-- reply 40.4

-- ask Requested read-out: inhibition. Entry: Clc1ccc(C(CCN2CCOCC2)N2CCOCC2)cc1Cl (stereo not drawn)
-- reply 4.9

-- ask Look up inhibition: COc1ccc2cc(C(CCN3CC=C(Cc4ccccc4)CC3)N3CCCC3)ccc2c1Cl (stereo not drawn)
-- reply 73.5

-- ask # query: inhibition of entry C1=C(Cc2ccccc2)CCN(CCC(c2csc3ccccc23)N2CCCCC2)C1 (stereo not drawn)
-- reply 52.7

Quick one: give me inhibition for each item below, same order please.
1. CN(C)CCC(c1ccc(F)cc1)N1CCCC1 (stereo not drawn)
2. CN(C)CCC(c1ccc(Cl)cc1)N1CCOCC1 (stereo not drawn)
3. CN(C)CCC(c1ccc(F)cc1F)N1CCOCC1 (stereo not drawn)

-- reply
68.9
52.5
19.4

* * *

Biological target: Sodium-dependent noradrenaline transporter (Homo sapiens)
Experiment: Inhibition of [3H]-NE uptake in human norepinephrine transporter expressed in HEK293 cells at 10 uM by scintillation counting
Assay type: cell-based
experimental-readout: inhibition (%)
Numbers only, in %.

Solved entries (count: 5):
-- ask Given the compound COc1ccc2cc(C(CCN(C)Cc3ccccc3)N3CCOCC3)ccc2c1Cl (stereo unspecified) , what is its reported inhibition?
-- reply 49.5

-- ask Returns the measured inhibition for the input compound. Input: CN(CCC(c1cc2ccccc2s1)N1CCOCC1)Cc1ccccc1 (stereo unspecified)
-- reply 37.8

-- ask Given COc1ccc(C(CCN(C)C)N2CCOCC2)cc1 (stereo unspecified) , state its recorded inhibition.
-- reply 29.3

-- ask Which inhibition reading was recorded for the compound CN(CCC(c1ccc(Cl)c(Cl)c1)N1CCOCC1)Cc1ccccc1 (stereo unspecified) ?
-- reply 50.6

-- ask Requested field: inhibition. Item: CN(CCC(c1ccc(F)cc1F)N1CCOCC1)Cc1ccccc1 (stereo unspecified)
-- reply 5.3

Let us examine a further case.
-- ask Value lookup for inhibition; key = CC1CCCN(C(CCN2CCOCC2)c2ccc(Cl)c(Cl)c2)C1 (stereo unspecified)
-- reply 35.3

* * *

Experiment: Drug uptake in Sprague-Dawley rat plasma at 0.5 mg/kg iv after 2 hrs
Assay type: ADME, organism-based
Design: dose 0.5 mg/kg, route intravenous
experimental-readout: concentration at 2 h (ng/mL)
Give bare numbers, in ng/mL.

-- ask # lookup: concentration at 2 h of CN(C)CCC(c1ccc(Cl)c(Cl)c1)N1CCOCC1 (stereo unspecified)
-- reply 10.9
